- Test details: Blood bioavailability of avasimibe
- Assay type: in vivo, mice
- Details: nude, mouse, whole blood, po, 15 mg/kg
Experimental endpoint: AUC (ng·h/mL)
Answer format: numeric, ng·h/mL implied, no suffix.

Returns the measured AUC for the input compound. Input: CC(C)c1cc(C(C)C)c(CC(=O)NS(=O)(=O)Oc2c(C(C)C)cccc2C(C)C)c(C(C)C)c1
14900
